System: OVCAR-8
Test: In vitro growth inhibition, OVCAR-8
Type: cell-based
Conditions: Homo sapiens, OVCAR-8; Table 9; read-out: IC50 ± SEM (nM) OVCAR-8
EXPERIMENTAL READOUT: IC50 (nM)
Output spec: scalar in nM, unitless text.

What value of IC50 has been recorded for this entry: COc1cc(C(=O)c2c[nH]c(-c3ccc(C)cc3)n2)cc(OC)c1OC [12da]
47

====

System: A375RF21 cells
Experiment: Cell proliferation MTS assay, vemurafenib-resistant A375RF21
Conditions: Homo sapiens, read-out: IC50 for proliferation inhibition
EXPERIMENTAL READOUT: IC50 (µM)
Entry rule: numbers only, all in µM.

// IC50 lookup, key: CCCS(=O)(=O)Nc1ccc(F)c(C(=O)c2c[nH]c3ncc(-c4ccc(Cl)cc4)cc23)c1F
28.9
